# Test system: HL-60
# procedure-summary: Antiproliferative activity against human HL60 cells after 48 hrs by MTT assay
# Assay type: functional, cell-based
# condition-context: HL-60, 48 h
pIC50: −log10 of the molar value.
metric-name: pIC50

P: COc1ccc(NC(=O)/C=C/c2c[nH]c3ccccc23)c(OC)c1
Q: COc1ccc(NC(=O)/C=C/c2c[nH]c3ccccc23)cc1OC
INPUT: Of P and Q , whose reported pIC50 is numerically smaller? Mark your answer with the label of the selected entry.
OUTPUT: P
(P: 4.75, Q: 5.21)

I: COc1ccc(OC)c(NC(=O)/C=C/c2c[nH]c3ccccc23)c1
II: COc1cc(NC(=O)/C=C/c2c[nH]c3ccccc23)cc(OC)c1OC
INPUT: Of I and II , whose reported pIC50 is numerically smaller? Mark your answer with the label of the selected entry.
OUTPUT: I

###

# study-target: Tubulin (Bos taurus) (UniProt Q6B856+Q862L2+Q862F3)
# procedure-summary: Displacement of [3H]colchicine from bovine brain tubulin at 50 uM after 10 mins by liquid scintillation counting
metric-name: inhibition (%)

See these solved cases before continuing.
structure-smiles	inhibition / %
COc1ccc(OC)c(NC(=O)/C=C/c2c[nH]c3ccccc23)c1	15
COc1cc(OC)c(NC(=O)/C=C/c2c[nH]c3ccccc23)c(OC)c1	11
COc1cc(NC(=O)/C=C/c2c[nH]c3ccccc23)cc(OC)c1OC	50
COc1ccc(CNC(=O)/C=C/c2c[nH]c3ccccc23)cc1OC	13
COc1ccc(NC(=O)/C=C/c2c[nH]c3ccccc23)cc1OC	11

a: COc1cccc(CNC(=O)/C=C/c2c[nH]c3ccccc23)c1OC
b: COc1ccc(OC)c(CNC(=O)/C=C/c2c[nH]c3ccccc23)c1
INPUT: Of a and b , whose reported inhibition is numerically smaller? Mark your answer with the label of the selected entry.
OUTPUT: a
(a: 12%, b: 23%)

1: COc1ccc(NC(=O)/C=C/c2c[nH]c3ccccc23)c(OC)c1
2: COc1cc(NC(=O)/C=C/c2c[nH]c3ccccc23)cc(OC)c1
INPUT: // max by inhibition over [ 1 , 2 ] Mark your answer with the label of the selected entry.
OUTPUT: 2
(2: 26%, 1: 13%)

###

# Test system: HeLa
# procedure-summary: Antiproliferative activity against human HeLa cells after 48 hrs by MTT assay
# Type: functional, cell-based
pIC50: −log10 of the molar value.
Listed here are compounds together with their documented pIC50.

See these solved cases before continuing.
structure-smiles	study-target	measurement
COc1cc(OC)c(NC(=O)/C=C/c2c[nH]c3ccccc23)c(OC)c1	HeLa	< 4.00
COc1cc(NC(=O)/C=C/c2c[nH]c3ccccc23)cc(OC)c1	HeLa	< 4.00
COc1ccc(NC(=O)/C=C/c2c[nH]c3ccccc23)c(OC)c1	HeLa	< 4.00
COc1ccc(CNC(=O)/C=C/c2c[nH]c3ccccc23)cc1OC	HeLa	< 4.00

Tested system HeLa; pIC50 recorded for COc1ccc(CNC(=O)/C=C/c2c[nH]c3ccccc23)c(OC)c1 was < 4.00

Tested system HeLa; pIC50 recorded for COc1ccc(NC(=O)/C=C/c2c[nH]c3ccccc23)cc1OC was 4.50

###

# Test system: HeLa
# procedure-summary: Antiproliferative activity against human HeLa cells after 48 hrs by MTT assay
# Type: functional, cell-based
metric-name: IC50 (µM)

1: COc1cccc(CNC(=O)/C=C/c2c[nH]c3ccccc23)c1OC
2: COc1cc(NC(=O)/C=C/c2c[nH]c3ccccc23)cc(OC)c1OC
INPUT: Of 1 and 2 , whose reported IC50 is numerically smaller? Mark your answer with the label of the selected entry.
OUTPUT: 2

###

# Tested on: HeLa
# procedure-summary: Antiproliferative activity against human HeLa cells after 48 hrs by MTT assay
# Assay type: functional, cell-based
pIC50: −log10 of the molar value.
metric-name: pIC50

structure-smiles	measurement
COc1cc(CNC(=O)/C=C/c2c[nH]c3ccccc23)ccc1O	< 4.00
COc1ccc(OC)c(NC(=O)/C=C/c2c[nH]c3ccccc23)c1	< 4.00

Kindly review the next molecule as well.
Note to self: pIC50 recorded for COc1ccc(OC)c(CNC(=O)/C=C/c2c[nH]c3ccccc23)c1 was < 4.00
